From: patent US5264429A

This section presents molecules with their documented pIC50 values.
# study.system: plasmin (Homo sapiens, UniProt P00747)
# Sequence (P00747 581-810 limits assumed): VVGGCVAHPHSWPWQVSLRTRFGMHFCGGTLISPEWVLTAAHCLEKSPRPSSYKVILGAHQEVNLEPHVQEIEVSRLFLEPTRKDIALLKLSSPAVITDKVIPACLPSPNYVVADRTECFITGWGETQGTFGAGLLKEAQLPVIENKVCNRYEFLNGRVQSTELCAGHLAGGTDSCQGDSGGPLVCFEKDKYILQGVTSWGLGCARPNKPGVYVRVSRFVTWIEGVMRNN
# Sequence (P00747 97-580 partner limits assumed): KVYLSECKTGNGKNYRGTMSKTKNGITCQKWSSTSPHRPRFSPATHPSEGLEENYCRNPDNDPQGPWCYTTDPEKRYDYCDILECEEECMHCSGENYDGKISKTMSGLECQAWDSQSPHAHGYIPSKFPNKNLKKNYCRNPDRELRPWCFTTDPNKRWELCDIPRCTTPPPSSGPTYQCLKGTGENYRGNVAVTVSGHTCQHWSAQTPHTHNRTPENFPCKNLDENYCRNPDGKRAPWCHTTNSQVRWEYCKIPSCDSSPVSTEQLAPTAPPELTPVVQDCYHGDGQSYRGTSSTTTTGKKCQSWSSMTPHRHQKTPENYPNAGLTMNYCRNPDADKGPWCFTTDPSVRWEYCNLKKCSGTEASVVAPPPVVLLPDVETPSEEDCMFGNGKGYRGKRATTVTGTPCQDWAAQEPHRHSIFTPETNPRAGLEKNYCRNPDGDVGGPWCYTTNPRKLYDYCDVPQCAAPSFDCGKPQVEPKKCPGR
# protocol.notes: Inhibition of plasmin (PTH)
# condition.parameters: pH 8.9, 10 minute preincubation, 22° C.
Schema: pIC50 number; meaning minus log10 of the concentration expressed in molar units.

CO[C@H]1C(=O)N2C(C(=O)OCC(Cl)(Cl)Cl)=C(C)C3(CC3(c3ccccc3)c3ccccc3)S(=O)(=O)[C@H]12 (stereo partly drawn) [Example 8]; 5.89
CO[C@H]1C(=O)N2C(C(=O)OC(c3ccccc3)c3ccccc3)=C(C)C3(CC3(c3ccccc3)c3ccccc3)S(=O)(=O)[C@H]12 (stereo partly drawn) [Example 9]; 5.06
CCOC(=O)C1CC12C(C)=C(C(=O)OC(c1ccccc1)c1ccccc1)N1C(=O)[C@H](Br)[C@H]1S2(=O)=O (stereo partly drawn) [Example 13 (1)]; 4.96

Turning now to a further record.
# pIC50 of CC1=C(C(=O)OC(c2ccccc2)c2ccccc2)N2C(=O)[C@H](Cl)[C@H]2S(=O)(=O)C12CC2(c1ccccc1)c1ccccc1 (single isomer, unassigned) [Example 1] = 5.44

----------
# study.system: cathepsin D (Bos taurus, UniProt P80209)
# Construct: from tissue; host or cells: bovine spleen
# Sequence (P80209 45-390): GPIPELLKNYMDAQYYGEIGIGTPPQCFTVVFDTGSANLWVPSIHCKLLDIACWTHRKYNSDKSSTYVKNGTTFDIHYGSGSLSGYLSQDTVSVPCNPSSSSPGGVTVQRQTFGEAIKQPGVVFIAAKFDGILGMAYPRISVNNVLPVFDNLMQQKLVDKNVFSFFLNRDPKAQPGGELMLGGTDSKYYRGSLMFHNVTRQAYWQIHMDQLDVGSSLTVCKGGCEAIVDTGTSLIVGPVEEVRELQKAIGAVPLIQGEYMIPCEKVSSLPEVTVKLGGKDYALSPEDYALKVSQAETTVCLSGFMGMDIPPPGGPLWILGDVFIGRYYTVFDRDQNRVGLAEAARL
# protocol.notes: Inhibition of cathepsin D (CTD)
# Format: biochemical, bovine
# condition.parameters: cathepsin D, pH 3.2, 10 minute preincubation, 30° C.; read-out: IC50 CTD
endpoint.name: IC50

The cases that follow already have their IC50 on record.
CCO[C@H]1C(=O)N2C(C(=O)OCC(Cl)(Cl)Cl)=C(C)C3(CC3(c3ccccc3)c3ccccc3)S(=O)(=O)[C@H]12 (some centres unmarked); > 10 µM
CC1=C(C(=O)OC(c2ccccc2)c2ccccc2)N2C(=O)[C@H](Br)[C@H]2S(=O)(=O)C12CC2(c1ccc(Cl)cc1)c1ccc(Cl)cc1 (single isomer, unassigned); > 46.2 µM
CC1=C(C(=O)OC(c2ccccc2)c2ccccc2)N2C(=O)[C@H](Br)[C@H]2S(=O)(=O)C12CC2(c1ccc(F)cc1)c1ccc(F)cc1 (single isomer, unassigned); > 50 µM

# IC50 of CC1=C(C(=O)OC(c2ccccc2)c2ccccc2)N2C(=O)[C@H](Br)[C@H]2S(=O)(=O)C12CC2(C)c1ccccc1 (some centres unmarked) = > 46.6 µM

# IC50 of CC1=C(C(=O)OC(c2ccccc2)c2ccccc2)N2C(=O)[C@H](Br)[C@H]2S(=O)(=O)C12CC2(c1ccccc1)c1ccccc1 (single isomer, unassigned) = > 50 µM

----------
# study.system: cathepsin G (Homo sapiens, UniProt P08311)
# Construct: from tissue; host or cells: human white blood cells
# Sequence (P08311 21-244 limits assumed): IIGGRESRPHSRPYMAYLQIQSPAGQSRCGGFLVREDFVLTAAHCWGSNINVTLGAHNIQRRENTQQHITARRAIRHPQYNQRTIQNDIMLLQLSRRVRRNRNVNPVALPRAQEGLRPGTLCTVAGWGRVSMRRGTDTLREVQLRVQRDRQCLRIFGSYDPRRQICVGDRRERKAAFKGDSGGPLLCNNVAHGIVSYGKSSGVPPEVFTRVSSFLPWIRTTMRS
# protocol.notes: Inhibition of cathepsin G (CTG)
# Type: biochemical
# condition.parameters: cathepsin G 50 nM, pH 7.5, 10 minute preincubation, 30° C.; read-out: IC50 CTG (converted)
endpoint.name: IC50

The cases that follow already have their IC50 on record.
CO[C@H]1C(=O)N2C(C(=O)N3CCCC3)=C(C)C3(CC3(c3ccccc3)c3ccccc3)S(=O)(=O)[C@H]12 (some centres unmarked) [Example 10]; > 30.9 µM
CO[C@H]1C(=O)N2C(C(=O)N3CCCCC3)=C(C)C3(CC3(c3ccccc3)c3ccccc3)S(=O)(=O)[C@H]12 (some centres unmarked) [Example 11]; > 10 µM
CC1=C(C(=O)OC(c2ccccc2)c2ccccc2)N2C(=O)[C@H](Br)[C@H]2S(=O)(=O)C12CC2(c1ccccc1)c1ccccc1 (single isomer, unassigned) [Example 2]; > 16.2 µM

# IC50 of CC1=C(C(=O)N2CCCC2)N2C(=O)[C@H](Br)[C@H]2S(=O)(=O)C12CC2(c1ccccc1)c1ccccc1 (some centres unmarked) [Example 6] = > 39 µM

# IC50 of CO[C@H]1C(=O)N2C(C(=O)OC(c3ccccc3)c3ccccc3)=C(C)C3(CC3(c3ccccc3)c3ccccc3)S(=O)(=O)[C@H]12 (some centres unmarked) [Example 9] = > 10 µM
